Biological target: T1, human IL-1α (human, UniProt P01583 113-271)
T1 construct: also called IL-1alpha; hIL-1α
T1 sequence (looked up): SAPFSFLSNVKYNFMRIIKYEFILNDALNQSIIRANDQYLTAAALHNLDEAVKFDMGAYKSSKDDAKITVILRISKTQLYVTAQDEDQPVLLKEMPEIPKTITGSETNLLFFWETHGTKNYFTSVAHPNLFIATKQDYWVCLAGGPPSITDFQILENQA
Experiment: BIAcore (SPR)
Each entry below lists one item and its recorded Kd value.
Write the number in nM without appending the unit.

Binder	Kd (nM)
ABT1-96 (other, VH dAb) VH: EVQLLESGGGLVQPGGSLRLSCAASGFTFNQYNMFWVRQAPGKGLEWVSVISGSGRFTYYADSVKGRFTISRDNSKNTLYLQMNSLRAEDTAVYYCAKGWWRRDPPFDYWGQGTLVTVSS	1.1
ABT1-98 (other, VH dAb) VH: EVQLLESGGGLVQPGGSLRLSCAASGFTFDGYIMSWVRQAPGKGLEWVSTISPLGSVTYYADSVKGRFTISRDNSKNTLYLQMNSLRAEDTAVYYCAKKGPWFDYWGQGTLVTVSS	13
ABT1-141 (other, VK dAb) VL: DIQMTQSPSSLSASVGDRVTITCRASQWIQKQLAWYQQKPGKAPKLLIYSSSYLQSGVPSRFSGSGSGTDFTLTISSLQPEDFATYYCQQHLRVPFTFGQGTKVEIKR	300
ABT1-6-23 (other, VH dAb) VH: EVQLLESGGGLVQPGGSLRLSCAASGFTFVRYDMAWVRQAPGKGLEWVSSIYKSGALTSYADSVKGRFTISRDNSKNTLYLQMNSLRAEDTAVYYCAKGWASFDYWGQGTLVTVSS	61
ABT1-122 (other, VK dAb) VL: DIQMTQSPSSLSASVGDRVTITCRASQPIWTELNWYQQKPGKAPKLLIYGSSSLQSGVPSRFSGSGSGTDFTLTISSLQPEDFATYYCQQFAYFPATFGQGTKVEIKR	42

Query string: Name the reported Kd value associated with the binder ABT1-95 (other, VK dAb) VL: DIQMTQSPSSLSASVGDRVTITCRASQPIHGNLRWYQQKPGKAPKLLIYNISNLQSGVPSRFSGSGSGTDFTLTISSLQPEDFATYYCQQGYRWPVTFGQGTKVEIKR
Result string: 45

Query string: Give its Kd value. Item: ABT1-86 (other, VH dAb) VH: EVQLLESGGGLVQPGGSLRLSCAASGFTFDRYIMAWVRQAPGKGLEWVSSITPSGAATYYADSVKGRFTISRDNSKNTLYLQMNSLRAEDTAVYYCAEEPADRYSTWTFDYWGQGTLVTVSS
Result string: 110
